Overview of reported IC50 across a group of molecules:
- System: CEM cells HIV-1 protection, formazan growth assay
- assay remarks: NCI AIDS Antiviral Assay
- condition set: measured here: growth of uninfected CEM cells
property: IC50

molecule=C(/C=N/NC1=NCCN1)=N\NC1=NCCN1 property=IC50 measured_result="> 200 µM"
molecule="CC1=NN(c2cccc(S(=O)(=O)O)c2)C(=O)C1N=Nc1cc(Cl)cc(S(=O)(=O)O)c1O.O.[Cr] (stereo unspecified)" property=IC50 measured_result="> 100 µM"
molecule="C/C(=N\\N=C(N)N)C(CN1CCOCC1)C(c1ccccc1)c1c(O)c2ccccc2oc1=O (stereo unspecified)" property=IC50 measured_result="> 52.5 µM"
molecule="Nc1ncnc2c1ncn2C1CCC(CP(=O)(O)O)C1 (stereo unspecified)" property=IC50 measured_result="> 200 µM"
molecule="O=C1C(O)C(O)C(O)C(O)C1O (stereo unspecified)" property=IC50 measured_result="> 200 µM"
molecule=CC(=O)C(C)(CCC(=O)O)CCC(=O)O property=IC50 measured_result="> 955 µM"
